Would you kindly list % Inhibition @ […] for each of these substances?
- System: TFPI
- Run Description: % Inhibition @ 0.63µM
Lab note: write values as number then unit, every time.

Per the records, this substance ( Ac-FQSKGNVFVDGYFDRLRAKL-NH2 (SEQ ID NO: 31) [JBT0476] ) has % Inhibition @ […] equal to 38%

Per the records, this substance ( Ac-FQSKDNVFVTGYFERLRAKL-NH2 (SEQ ID NO: 33) [JBT0478] ) has % Inhibition @ […] equal to 21%

Per the records, this substance ( Ac-FQSKGNVFVHGYFERLRAKL-NH2 (SEQ ID NO: 28) [JBT0473] ) has % Inhibition @ […] equal to 31%

Per the records, this substance ( Ac-FQSKGNVFVEGYFERLRAKL-NH2 (SEQ ID NO: 30) [JBT0475] ) has % Inhibition @ […] equal to 37%

Per the records, this substance ( Ac-FQSKGNVFVNGYFERLRAKL-NH2 (SEQ ID NO: 27) [JBT0472] ) has % Inhibition @ […] equal to 34%

Source listed as patent US10800816B2.
